system.tested: Human MrgprX2 (Homo sapiens, UniProt Q96LB1)
Construct: expressed in transfected cells
assay.text: Human MrgprX2 antagonist FLIPR intracellular calcium mobilization assay
Format: cell-based
assay.context: antagonist activity, recombinant hMrgpMRGPRX2 expressing cells, read-out: Human MrgprX2 Antagonist pIC50 (converted)
Known log10 IC50 of a selection of compounds
Friendly reminder: values = log10 of IC50, unit nM.

get_value(item= CCN(C[C@H](C)O)C(=O)Nc1ncc(Cc2cc(F)ccc2OC)s1 , readout=log10 IC50) returns 1.60

Reported log10 IC50 for CCN(C[C@H](C)O)C(=O)Nc1cnc(Oc2cc(F)cc(F)c2)s1 was 3.90

log10 IC50 for CCN(C[C@H](C)O)C(=O)Nc1ncc(Oc2cncc(F)c2)s1 is 0.10

The compound listed as C[C@H](O)CN(C)C(=O)Nc1ncc(Oc2cccc(F)c2C#N)s1 shows log10 IC50 equal to 3.20

Sample CCN(C[C@H](C)O)C(=O)Nc1ncc(Oc2cccc(C#N)c2)s1 ; log10 IC50 observed: 0.20

---

system.tested: Human MrgprX2 (Homo sapiens)
Construct: expressed in transfected cells
assay.text: Human MrgprX2 antagonist FLIPR intracellular calcium mobilization assay
Assay type: cell-based
assay.context: antagonist activity, recombinant hMrgpMRGPRX2 expressing cells, read-out: Human MrgprX2 Antagonist pIC50 (converted)
Rule: IC50 below 500 nM gives label 1. Equal to or above 500 nM gives label 0.

- CC1(C(=O)Nc2ncc(Cc3ccc(F)cc3)s2)CCOCC1 [Compound E001]: label 1
- CC(C)NC(=O)c1ncc(Cc2cccc(F)c2)s1 [Compound E217]: label 0
- O=C(Nc1ncc(Cc2cccc(F)c2)s1)C1CCCC1O (centres unmarked) [Compound E038]: label 0

Q) Could you please tell me whether IC50 recorded for C[C@H](O)CN(C)C(=O)Nc1ncc(Oc2ccc(F)c(C#N)c2)s1 [Compound E165] is less than 500 nM?
A) label 1

---

system.tested: Human MrgprX2 (Homo sapiens)
Construct: expressed in transfected cells
assay.text: Human MrgprX2 antagonist FLIPR intracellular calcium mobilization assay
Format: cell-based
assay.context: antagonist activity, recombinant hMrgpMRGPRX2 expressing cells, read-out: Human MrgprX2 Antagonist pIC50 (converted)
measure.name: log10(IC50) (log10 of the value in nM)
Heads up, the numbers here are log10 of IC50 in nM units.

Value of measured log10(IC50) for the entry C[C@]1(C(=O)Nc2ncc(Oc3cccc(F)c3)s2)CCOC1 (single isomer, unassigned) : 0.50

Measured log10(IC50), CC1(C(=O)Nc2ncc(Cc3ccccc3F)s2)CCOC1 (centres unmarked) : 2.80

For CC(C)(C#N)C(=O)Nc1ncc(Cc2cccc(Cl)c2)s1 the molecule record lists log10(IC50) as 2.20

Record summary for O=C(Nc1ncc(Cc2cccc(F)c2)s1)N1CC[C@H](CO)C1 : reported log10(IC50) = 2.90

Reported log10(IC50) of CC(C)C(=O)Nc1ncc(Cc2cc(F)cc(F)c2)s1 : 0.30

Sure, the documented log10(IC50) for CC(C)(C)OC(=O)N1CCC[C@]1(C)C(=O)Nc1ncc(Cc2cccc(F)c2)s1 is 2.40

Lab note: measured log10(IC50) of CCN(C[C@H](C)O)C(=O)Nc1ncc(Oc2cccc(C#N)c2F)s1 was 1.70

According to the records, this molecule NS(=O)(=O)N1CCC[C@@H]1C(=O)Nc1ncc(Oc2ccc(F)cc2)s1 displays log10(IC50) of 1.40

Field log10(IC50) (entry CC(C)C(=O)Nc1ncc(Cc2cccc(F)c2F)s1 ) reads 0.90

Data point: C[C@H](O)CN(C)C(=O)Nc1ncc(Cc2cccc(F)c2F)s1 ; log10(IC50) = 1.00

Measured log10(IC50), CC1(C(=O)Nc2ncc(Cc3cccc(Cl)c3)s2)CCOC1 (centres unmarked) : 1.90

Reported log10(IC50) of CC(O)(C(=O)Nc1ncc(Cc2cccc(F)c2)s1)C(F)(F)F (centres unmarked) : 2.30

# log10(IC50) (molecule: CC(C)C(=O)Nc1nc(-c2ccccc2)cs1 ) is 3.80

For record CC(C)C(=O)Nc1ncc(N(C)c2ccccc2)s1 the listed log10(IC50) is 3.20

The reported log10(IC50) of the molecule CCN(C[C@H](C)O)C(=O)Nc1ncc(Oc2ccc(F)cc2C#N)s1 was 2.90

get_value(item= CCN(C[C@H](C)O)C(=O)Nc1nc(C)c(Oc2cc(F)cc(C#N)c2)s1 , readout=log10(IC50)) returns 0.50

Entry CN(CC(O)CO)C(=O)Nc1ncc(Cc2cccc(F)c2)s1 (centres unmarked) — recorded log10(IC50) = 3.50

The reported log10(IC50) of the molecule CN(CC(C)(C)O)C(=O)Nc1ncc(Cc2cccc(F)c2)s1 was 0.20

Reported log10(IC50) for C[C@H](O)CN(C)C(=O)Nc1ncc(Cc2ccc(F)c(F)c2)s1 was 1.20

Per the records, this molecule ( CCN(C[C@H](C)O)C(=O)Nc1nc(C)c(Oc2ccc(F)cc2)s1 ) has log10(IC50) equal to 0.90

The molecule listed as CCN(C[C@H](C)O)C(=O)Nc1ncc(Oc2cccnc2F)s1 has a reported log10(IC50) of 2.00

Value of log10(IC50) reported for the molecule CCN1CCC[C@@H]1C(=O)Nc1ncc(Oc2ccc(C#N)cc2)s1 is 3.50

So for CCN(C[C@H](C)O)C(=O)Nc1ncc(Oc2ccc(C#N)cc2)s1 , the logged log10(IC50) turned out to be 0.50

---

molecules and their reported IC50
system.tested: Human MrgprX2 (Homo sapiens)
Construct: expressed in transfected cells
assay.text: Human MrgprX2 antagonist FLIPR intracellular calcium mobilization assay
Assay type: cell-based
assay.context: antagonist activity, recombinant hMrgpMRGPRX2 expressing cells, read-out: Human MrgprX2 Antagonist pIC50 (converted)
// note: answer is a bare numeric in µM

• CC1(C(=O)Nc2ncc(Cc3cccc(F)c3)s2)CCC(=O)N1 (stereo not drawn) = 7.94
• C[C@@H](O)CN(C)C(=O)Nc1ncc(Cc2cccc(F)c2)s1 = 0.251
• C[C@H](O)CN(C)C(=O)Nc1ncc(Cc2c(F)cccc2F)s1 = 1.58
• CCN(C[C@H](C)O)C(=O)Nc1ncc(Cc2cccc(F)c2)s1 = 0.000631

Lab note: measured IC50 of CC1(C(=O)Nc2ncc(Cc3ccccc3F)s2)CCN(S(N)(=O)=O)C1 (stereo not drawn) was 0.631

Reported IC50 ( C[C@H](O)CN(C)C(=O)Nc1ncc(Oc2cc(C#N)ccc2F)s1 ) = 0.501

The reported value for CC1(C(=O)Nc2ncc(Cc3ccccc3F)s2)CCOCC1 in terms of IC50 is 0.398

For this molecule ( CCN(C[C@H](C)O)C(=O)Nc1ncc(Oc2ccnc(C#N)c2)s1 ), measured IC50 is 2.51

---

Below, each of the compounds is paired with its reported log10 of IC50 value.
system.tested: Human MrgprX2 (Homo sapiens, UniProt Q96LB1)
Construct: expressed in transfected cells
assay.text: Human MrgprX2 antagonist FLIPR intracellular calcium mobilization assay
Type: cell-based
assay.context: antagonist activity, recombinant hMrgpMRGPRX2 expressing cells, read-out: Human MrgprX2 Antagonist pIC50 (converted)
Values reflect log10 of reported IC50 (nM).

• CC(C)(F)C(=O)Nc1ncc(Cc2ccccc2F)s1 = 2.40
• CCN(C[C@H](C)O)C(=O)Nc1ncc(Oc2cncc(C#N)c2)s1 = 1.50

Entry O=C(Nc1ncc(Cc2cccc(F)c2)s1)N1CCC[C@@H]1CO — recorded log10 of IC50 = 1.60

CC1(C(=O)Nc2ncc(Oc3cccc(F)c3)s2)CCOCC1 has a reported log10 of IC50 of 0.70

---

# key: entry, value: IC50
system.tested: Human MrgprX2 (Homo sapiens)
Construct: expressed in transfected cells
Sequence (Q96LB1 1-330): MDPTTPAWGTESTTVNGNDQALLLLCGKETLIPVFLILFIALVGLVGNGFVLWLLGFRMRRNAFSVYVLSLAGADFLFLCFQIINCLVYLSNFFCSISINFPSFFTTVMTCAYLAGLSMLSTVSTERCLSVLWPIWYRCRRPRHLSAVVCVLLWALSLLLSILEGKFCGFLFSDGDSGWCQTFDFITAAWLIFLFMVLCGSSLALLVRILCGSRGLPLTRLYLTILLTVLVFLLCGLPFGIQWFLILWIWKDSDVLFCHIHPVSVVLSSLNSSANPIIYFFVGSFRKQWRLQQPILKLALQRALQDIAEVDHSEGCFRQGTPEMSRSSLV
assay.text: Human MrgprX2 antagonist FLIPR intracellular calcium mobilization assay
Assay type: cell-based
assay.context: antagonist activity, recombinant hMrgpMRGPRX2 expressing cells, read-out: Human MrgprX2 Antagonist pIC50 (converted)
Excerpt: Potent and selective hMrgpMRGPRX2 compounds have been generated from compounds identified during a high throughput screening (HTS) campaign and followed up with cycles of structure activity based medicinal chemistry efforts. […] The assays used to determine potencies are functional read-out looking at intracellular calcium mobilization using the FLIPR™ technology. […]
Numbers only here, please. The scale is nM.

• CC1(C(=O)Nc2ncc(Cc3cccc(Cl)c3)s2)COC1 = 316

Alright, here's another compound for you.
# IC50 of CC(C)(C)OC(=O)N1CCC[C@@H]1C(=O)Nc1ncc(Cc2cccc(F)c2)s1 = 3160
